Read-out: Vascular cell adhesion molecule 1 (VCAM1), VCAM1 (gene 7412)
Test: BSK_4H_VCAM1: BioMAP Diversity Plus: 4H Assay for Vascular cell adhesion molecule 1 (VCAM1) Biomarker Activity (AID 2283033)
Conditions: primary human endothelial cells (HUVEC); actives raise or lower the signal
Calls of active or inactive are those of the source. Rule for the calls: active = hit-call score of the fitted dose curve at least 0.9, where 1 is the maximum; inactive = score below 0.9.
Possible outcomes: active, inactive

{"compound": "CCCN(CCC)C(=O)SCC", "label": "inactive"}
{"compound": "CCCCOC(=O)[C@@H](C)Oc1ccc(Oc2ccc(C(F)(F)F)cn2)cc1", "label": "inactive"}
{"compound": "CCCCOCCOCCOCc1cc2c(cc1CCC)OCO2", "label": "inactive"}
{"compound": "O=C(c1ccc(O)cc1O)c1ccc(O)cc1O", "label": "inactive"}
{"compound": "COC(=O)c1cccc(C)c1S(=O)(=O)NC(=O)Nc1nc(OCC(F)(F)F)nc(N(C)C)n1", "label": "inactive"}
{"compound": "CC(C)CCCCCCc1ccc(O)cc1", "label": "active"}
{"compound": "CCCCCCC(C)OC(=O)COc1nc(F)c(Cl)c(N)c1Cl (stereo not drawn)", "label": "active"}
{"compound": "CCN(CC)C(=O)c1cccc(C)c1", "label": "inactive"}
{"compound": "COc1c(Cl)ccc(Cl)c1C(=O)O", "label": "inactive"}
{"compound": "CCOC(=O)C(C)Oc1ccc(Oc2nc3ccc(Cl)cc3o2)cc1 (stereo not drawn)", "label": "inactive"}
{"compound": "CCOC(=O)NCCOc1ccc(Oc2ccccc2)cc1", "label": "inactive"}
{"compound": "CCC(O)=C1C(=O)CC(C(=O)O)CC1=O (stereo not drawn)", "label": "inactive"}
{"compound": "COC(=O)c1ccccc1C(=O)O", "label": "inactive"}

###

Experiment: CCTE_Simmons_MITO_max_resp_rate: CCTE's HepG2 Seahorse XF Respirometric Screening Assay at Maximal Respiratory State [uncoupled], Simmons Lab (AID 2284002)
Settings: actives raise or lower the signal
Calls of active or inactive are those of the source. How the source made its calls: active means hit-call score of the fitted dose curve at least 0.9, where 1 is the maximum; inactive means score below 0.9.
Labels: active, inactive

{"compound": "CCOC(=O)NCCOc1ccc(Oc2ccccc2)cc1", "label": "active"}
{"compound": "C=CCOC(Cn1ccnc1)c1ccc(Cl)cc1Cl (stereo not drawn)", "label": "active"}
{"compound": "Oc1ccc(C(c2ccc(O)cc2)C(Cl)(Cl)Cl)cc1", "label": "active"}
{"compound": "CCCCOC(=O)C(C)Oc1ccc(Oc2ccc(C(F)(F)F)cn2)cc1 (stereo not drawn)", "label": "inactive"}
{"compound": "O=C(O)C1(C(=O)Nc2ccc(Cl)cc2Cl)CC1", "label": "active"}
{"compound": "C[C@]12C[C@H](O)[C@H]3[C@@H](CCC4=CC(=O)CC[C@@]43C)[C@@H]1CC[C@@H]2C(=O)CO", "label": "inactive"}
{"compound": "CC(C)CCCCCCc1ccc(O)cc1", "label": "active"}
{"compound": "CC(=O)[C@H]1CC[C@H]2[C@@H]3CCC4=CC(=O)CC[C@]4(C)[C@H]3CC[C@]12C", "label": "active"}

###

Read-out: Cytochrome P450 3A7 (Homo sapiens)
Experiment: LTEA_HepaRG_CYP3A7: Life Technologies and Expression Analysis (LTEA) Assay for CYP3A7 using HepaRG (AID 2283492)
Conditions: mRNA level, 48 h; actives raise or lower the signal
Calls of active or inactive are those of the source. Rule for the calls: active = hit-call score of the fitted dose curve at least 0.9, where 1 is the maximum; inactive = score below 0.9.
Classes used: 1 (yes) for active, 0 (no) for inactive

{"compound": "COC(=O)c1ccccc1C(=O)O", "label": "0 (no)"}
{"compound": "Cc1nn(C)c(Oc2ccccc2)c1C=NOCc1ccc(C(=O)OC(C)(C)C)cc1", "label": "1 (yes)"}
{"compound": "CCCCOC(=O)C(C)Oc1ccc(Oc2ccc(C(F)(F)F)cn2)cc1 (stereo not given)", "label": "0 (no)"}
{"compound": "COC(=O)CSc1cc(N=c2sc(=O)n3n2CCCC3)c(F)cc1Cl", "label": "1 (yes)"}
{"compound": "CCCN(CCC)c1c([N+](=O)[O-])cc(C(F)(F)F)c(N)c1[N+](=O)[O-]", "label": "0 (no)"}
{"compound": "CCCCCOC(=O)COc1cc(N2C(=O)C3=C(CCCC3)C2=O)c(F)cc1Cl", "label": "0 (no)"}
{"compound": "O=C(O)c1ccccc1", "label": "0 (no)"}
{"compound": "CC(C)CCCCCCc1ccc(O)cc1", "label": "0 (no)"}
{"compound": "CCOC(=O)COc1cc(-n2ncc(C(F)(F)F)c(C)c2=O)c(F)cc1Cl", "label": "1 (yes)"}
{"compound": "CCOC(=O)C(C)Oc1ccc(Oc2cnc3cc(Cl)ccc3n2)cc1 (stereo not given)", "label": "1 (yes)"}
{"compound": "CCCOC(=O)c1ccc(C(=O)OCCC)nc1", "label": "0 (no)"}
{"compound": "CC(C)(c1ccc(O)cc1)c1ccc(O)cc1", "label": "0 (no)"}
{"compound": "COC(=O)c1ccc(I)cc1S(=O)(=O)NC(=O)Nc1nc(C)nc(OC)n1", "label": "0 (no)"}
{"compound": "CCOC(=O)NCCOc1ccc(Oc2ccccc2)cc1", "label": "0 (no)"}
{"compound": "O=C(c1ccccc1)C1CCCCC1", "label": "0 (no)"}
{"compound": "CSC(=O)c1cccc2nnsc12", "label": "0 (no)"}
{"compound": "CCCOC(=O)NCCCN(C)C", "label": "0 (no)"}
{"compound": "C#CCOC(=O)[C@@H](C)Oc1ccc(Oc2ncc(Cl)cc2F)cc1", "label": "1 (yes)"}
{"compound": "CC(C)(C)[C@@H](O)[C@@H](Cc1ccc(Cl)cc1)n1cncn1", "label": "1 (yes)"}
{"compound": "N#CSCSc1nc2ccccc2s1", "label": "1 (yes)"}
